tested on: OVCAR-8; assay: NCI tumour cell line growth inhibition, 48 h
Calls of active or inactive are those of the source. No stated cut-off is given here; in the data, active = GI50 up to about 1.1 µM and inactive = higher.
// allowed return values: active, inactive

{"compound": "CNC(=O)OCC1C2=C(C(=O)C(C)=C(N)C2=O)N2CC3C(N3C)C12OC (centres undefined)", "assignedClass": "inactive"}
{"compound": "ClC1=C(Cc2ccccc2)Cc2ccc3c(c21)CCC3", "assignedClass": "inactive"}
{"compound": "C=CCNC(=O)NNC(O)(C(=O)OCC)C(F)(F)F (centres undefined)", "assignedClass": "inactive"}
{"compound": "COc1cc(CCNC2=CC(=O)c3ncccc3C2=O)ccc1O", "assignedClass": "inactive"}
{"compound": "C1CCN(C2OC3C(COC3N3CCCCC3)OC2OC2CCO[C@@H]2N2CCCCC2)CC1 (some centres undefined)", "assignedClass": "inactive"}

Query: Assay result, entry CC1NOC(=O)C1/N=N/c1ccccc1Cl (centres undefined) — outcome?
Result: inactive

Query: Fill in: this test's call for CCCCCCCCCCCCCCCCCCOP(=O)([O-])OC1CC[N+](C)(C)CC1 [PERIFOSINE] is ___
Result: inactive

Query: Dear colleague, could you share the recorded outcome for "COc1cccc(-c2cc(O)c3cccnc3n2)c1" when you have a moment?
Result: active
